Ref: patent US20130156779A1

Listed next: entries and their corresponding koff.
# target entity: T1, Full-length human HER3 extracellular domain (ECD) (human, UniProt P21860 20-643)
# T1 construct: also called human HER3 ECD; HER-3 ECD full length
# T1 sequence (P21860 20-643): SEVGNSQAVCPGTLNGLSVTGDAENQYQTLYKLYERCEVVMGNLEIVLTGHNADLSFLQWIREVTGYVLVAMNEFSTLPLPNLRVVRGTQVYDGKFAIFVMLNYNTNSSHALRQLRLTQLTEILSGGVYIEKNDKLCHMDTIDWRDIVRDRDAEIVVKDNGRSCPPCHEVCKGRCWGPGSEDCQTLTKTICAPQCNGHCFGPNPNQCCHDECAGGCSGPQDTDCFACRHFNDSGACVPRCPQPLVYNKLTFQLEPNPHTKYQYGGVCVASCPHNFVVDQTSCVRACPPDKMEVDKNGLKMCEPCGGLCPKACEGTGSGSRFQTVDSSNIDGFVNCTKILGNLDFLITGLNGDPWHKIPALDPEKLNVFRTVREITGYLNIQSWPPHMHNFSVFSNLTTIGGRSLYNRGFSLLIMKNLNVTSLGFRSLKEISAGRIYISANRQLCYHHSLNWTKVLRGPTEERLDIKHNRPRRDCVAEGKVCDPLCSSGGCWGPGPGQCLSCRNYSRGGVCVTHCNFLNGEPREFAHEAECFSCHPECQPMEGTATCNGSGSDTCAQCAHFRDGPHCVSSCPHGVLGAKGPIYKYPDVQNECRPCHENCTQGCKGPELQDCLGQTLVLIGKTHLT
# experiment: BIACORE 3000 SPR, mAb captured by anti-human Fc, ECD as analyte, 25 C

{"binder": "15D5 H1L3 antibody (antibody, V domains shown, Humanized 15D5 variant; also called 15D5 HIL3 antibody) VH: QFQLVQSGAEVKKPGASVKVSCKASGYSFTDYNMNWVKQAPGQGLEWIGGINPNYGTTVYNQKFKGKATLTVDQSISTAYMELSRLRSDDTAVYYCARMTTIVPFDYWGQGTTVTVSS VL: DIQMTQSPSSLSASVGDRVTITCRASQDISNYLNWYQQKPGKAPKLLIYYTSTLHSGVPSRFSGSGSGTDFTLTISSLQPEDFATYYCQQGYTLPWTFGQGTKLEIKR", "koff [s⁻¹]": 0.000345}
{"binder": "Humanized 1D9 RR antibody (H6L2) (antibody, human IgG1, V domains shown, Human IgG1; also called 1D9 H6L2 RR antibody; h1D9 RR wt) VH: QVQLVQSGAEVKKPGASVKVSCKASGYTFTSYWMHWVRQAPGQGLEWMGVIDPSDGYSHYNQKFKGKVTLTVDTSISTAYMELSRLRSDDTAVYYCAGGLAGTLDYWGQGTTVTVSS VL: DIQMTQSPSSLSASVGDRVTITCRSSQSIVHSSGNTYLQWFQQKPGKAPKLLIYKVSNRFSGVPSRFSGSGSGTDFTLTISSLQPEDFAVYYCFQGSHVPWTFGQGTKLEIKRR", "koff [s⁻¹]": 0.0017}
{"binder": "15D5 H3L3 antibody (antibody, V domains shown, also called 15D5 H31.3 antibody) VH: QVQLVQSGAEVKKPGASVKVSCKASGYTFTDYNMNWVRQAPGQGLEWMGGINPNYGTTVYNQKFKGKATLTVDQSISTAYMELSRLRSDDTAVYYCARMTTIVPFDYWGQGTTVTVSS VL: DIQMTQSPSSLSASVGDRVTITCRASQDISNYLNWYQQKPGKAPKLLIYYTSTLHSGVPSRFSGSGSGTDFTLTISSLQPEDFATYYCQQGYTLPWTFGQGTKLEIKR", "koff [s⁻¹]": 0.000367}
